test-target: Androgen receptor (Homo sapiens)
Sequence (P10275 whole entry): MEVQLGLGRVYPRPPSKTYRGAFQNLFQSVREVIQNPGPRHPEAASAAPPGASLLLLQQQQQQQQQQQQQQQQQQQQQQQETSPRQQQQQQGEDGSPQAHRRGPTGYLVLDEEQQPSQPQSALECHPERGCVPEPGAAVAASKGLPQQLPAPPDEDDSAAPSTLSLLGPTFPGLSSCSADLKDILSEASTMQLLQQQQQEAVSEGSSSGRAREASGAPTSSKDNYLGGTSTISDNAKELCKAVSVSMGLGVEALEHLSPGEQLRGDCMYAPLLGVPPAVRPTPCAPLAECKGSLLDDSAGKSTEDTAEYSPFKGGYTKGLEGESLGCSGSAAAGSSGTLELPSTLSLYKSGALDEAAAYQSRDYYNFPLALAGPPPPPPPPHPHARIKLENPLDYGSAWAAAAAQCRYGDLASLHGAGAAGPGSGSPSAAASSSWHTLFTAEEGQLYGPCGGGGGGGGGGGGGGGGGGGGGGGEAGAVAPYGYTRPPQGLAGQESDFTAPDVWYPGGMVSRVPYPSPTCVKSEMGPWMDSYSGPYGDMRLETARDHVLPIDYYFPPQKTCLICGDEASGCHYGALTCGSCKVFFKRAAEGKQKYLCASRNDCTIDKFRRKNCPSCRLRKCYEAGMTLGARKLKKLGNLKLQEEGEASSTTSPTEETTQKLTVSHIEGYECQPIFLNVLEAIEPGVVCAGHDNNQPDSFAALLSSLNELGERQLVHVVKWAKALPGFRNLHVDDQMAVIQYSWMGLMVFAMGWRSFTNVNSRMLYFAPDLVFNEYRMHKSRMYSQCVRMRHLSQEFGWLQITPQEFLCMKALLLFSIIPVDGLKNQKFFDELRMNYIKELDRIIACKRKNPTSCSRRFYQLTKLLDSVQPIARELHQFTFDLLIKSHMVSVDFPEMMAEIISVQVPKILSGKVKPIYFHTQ
method-summary: Inhibition of human androgen receptor expressed in Escherichia coli
pIC50: −log10 of the molar value.
Assign class by pIC50: not lower than 9 means rule met; lower than 9 means rule not met.

[[record]]
compound = "CC[C@H]1C[C@@]2(C)C(CC[C@@H]2O)C2CCC3=CC(=O)CCC3=C21 (stereo not given in full)"
test_target = "Androgen receptor (Homo sapiens)"
assigned_category = "rule not met"

[[record]]
compound = "CCCCCCCC[C@H]1C[C@@]2(C)C(CC[C@@H]2O)C2CCC3=CC(=O)CCC3=C21 (stereo not given in full)"
test_target = "Androgen receptor (Homo sapiens)"
assigned_category = "rule not met"

[[record]]
compound = "CCCCCCCCCCCC[C@H]1C[C@@]2(C)C(CC[C@@H]2O)C2CCC3=CC(=O)CCC3=C21 (stereo not given in full)"
test_target = "Androgen receptor (Homo sapiens)"
assigned_category = "rule met"


--- query ---
Is pIC50 at least 9? Consider CCCCC[C@H]1C[C@@]2(C)C(CC[C@@H]2O)C2CCC3=CC(=O)CCC3=C21 (stereo not given in full)
rule met
